experimental.protocol: Phase 1 SAD/MAD pharmacokinetics of oral ATI-450 in healthy subjects (incl. 80/120 mg BID extension)
Type: in vivo, human
condition: both sexes, human, plasma, oral, 50 mg, 50 mg BID, day 7; read-out: AUC0-24, total daily exposure calculated as AUC0-12 × 2
reported.property: AUC(0-t) (µg·h/mL)

{"columns": ["molecule", "test.result"],
 "data": [
  ["Cc1cnc(-c2ccnc(C(C)(C)O)n2)cc1-n1c(C)cc(OCc2ncc(F)cc2F)c(Cl)c1=O (single isomer, unassigned)", 3.04]
]}

----------
experimental.protocol: Phase 1 SAD/MAD pharmacokinetics of oral ATI-450 in healthy subjects (incl. 80/120 mg BID extension)
Format: in vivo, human
condition: both sexes, human, plasma, po, 30 mg, single oral dose 30 mg, fasted
Experimental: Study Design. […] Single ascending dose (SAD) cohorts. […] Multiple ascending dose (MAD) cohorts. […] Blood Sampling and Bioanalysis. Two-milliliter blood samples were collected for PK analysis. […] The lower limit of quantification was 0.500 ng/mL. Pharmacokinetics. […] The method was minimally required to have intra- and inter-day precision (coefficients of variation) for pooled plasma quality control samples of ≤15% except at the lower limit of quantitation, where ≤20% was acceptable. […]

{"columns": ["molecule", "unit.spec", "AUC(0-inf)"],
 "data": [
  ["Cc1cnc(-c2ccnc(C(C)(C)O)n2)cc1-n1c(C)cc(OCc2ncc(F)cc2F)c(Cl)c1=O (single isomer, unassigned) [ATI-450]", "ng·h/mL", 1100]
]}

----------
experimental.protocol: 13-week oral administration non-clinical safety study, mini-pig
Format: in vivo
condition: male, minipig, in vivo; 60 mg/kg/day oral, study day 90, males

{"columns": ["molecule", "Cmax / ng/mL"],
 "data": [
  ["Cc1cnc(-c2ccnc(C(C)(C)O)n2)cc1-n1c(C)cc(OCc2ncc(F)cc2F)c(Cl)c1=O (single isomer, unassigned) [ATI-450]", 1670]
]}

----------
experimental.protocol: Phase 1 SAD/MAD pharmacokinetics of oral ATI-450 in healthy subjects (incl. 80/120 mg BID extension)
Assay type: in vivo, human
condition: both sexes, human, plasma, oral, 50 mg, 50 mg BID, day 6; read-out: Ctrough
reported.property: concentration at 6 day (ng/mL)

{"columns": ["compound", "unit.spec", "test.result"],
 "data": [
  ["Cc1cnc(-c2ccnc(C(C)(C)O)n2)cc1-n1c(C)cc(OCc2ncc(F)cc2F)c(Cl)c1=O (single isomer, unassigned)", "ng/mL", 76.4]
]}

----------
experimental.protocol: Phase 1 SAD/MAD pharmacokinetics of oral ATI-450 in healthy subjects (incl. 80/120 mg BID extension)
Format: in vivo, human
condition: both sexes, human, plasma, po, 50 mg, single oral dose 50 mg, fasted; read-out: Tmax, median (min, max)
reported.property: Tmax (h)

{"columns": ["compound", "reported.property", "test.result"],
 "data": [
  ["Cc1cnc(-c2ccnc(C(C)(C)O)n2)cc1-n1c(C)cc(OCc2ncc(F)cc2F)c(Cl)c1=O (single isomer, unassigned)", "Tmax", 3]
]}

----------
experimental.protocol: Phase 1 SAD/MAD pharmacokinetics of oral ATI-450 in healthy subjects (incl. 80/120 mg BID extension)
Assay type: in vivo, human
condition: both sexes, human, plasma, oral, 120 mg, 120 mg BID, day 1; read-out: AUC0-t

{"columns": ["compound", "unit.spec", "AUC(0-t)"],
 "data": [
  ["Cc1cnc(-c2ccnc(C(C)(C)O)n2)cc1-n1c(C)cc(OCc2ncc(F)cc2F)c(Cl)c1=O (single isomer, unassigned) [ATI-450]", "ng·h/mL", 2310]
]}
